# Test system: LOX IMVI melanoma
# Assay explanation: NCI tumour cell line growth inhibition, 48 h
Parameter: TGI

# Compound, Parameter, Result
measured = [
    ("Cn1ccnc1C(O)(c1nccn1C)c1nccn1C", "TGI", "> 100 µM"),
    ("O=C(O)c1cc(-c2ccc3c(O)c(O)ccc3c2)ccc1O", "TGI", "34.9 µM"),
    ("CC(C)c1[nH]nc2c1N=C(c1ccccc1Cl)c1cc([N+](=O)[O-])ccc1N2", "TGI", "> 17.5 µM"),
    ("COc1ccc(C(CC(=O)c2ccc3c(c2)OCO3)c2c(O)c3ccccc3oc2=O)cc1OC (stereo not given)", "TGI", "> 100 µM"),
    ("O=C1CC(C(O)(C(F)(F)F)C(F)(F)Cl)CCC1C(O)(C(F)(F)F)C(F)(F)Cl (stereo not given)", "TGI", "> 10 µM"),
]

I would be grateful if you could provide TGI for each of the following entries.
1. COc1ccc(S(=O)(=O)N2C(=O)CCC2C(=O)NN)cc1 (stereo not given)
2. Nc1cc2c(cc1Br)[nH]c(=O)c1ccccc12
3. COc1cc2c(/C=N\N=C(N)N)c[nH]c2cc1C
4. CC(C(=O)N1C(=O)N(C(=O)C(C)C(O)c2ccccc2)C2CCCCC21)C(O)c1ccccc1 (stereo not given)

Result:
["> 100 µM", "6.23 µM", "> 100 µM", "> 100 µM"]

Task: Form field: reported TGI of `N#CC(=Nc1ccccc1N(C(=O)c1ccccc1)C(=O)c1ccccc1)c1ccccc1`
Result: > 100 µM

====

# Test system: SF-539 CNS
# Assay explanation: NCI tumour cell line growth inhibition, 48 h; in the data active = GI50 below about 0.43 µM; inactive = the rest
Form entry, call: pick from True (active), False (inactive)

The examples below pair each entry with its known result.
# Structure string, Assayed system, Class
data = [
    ("C#CCOc1cccc(Nc2ncnc3c(NC(=O)C=C)cccc23)c1", "SF-539 CNS", "False"),
    ("CC(C)[C@H](O)C(=O)N[C@@H](C)C(=O)N[C@@H]1C(=O)N(C)CCc2ccccc21", "SF-539 CNS", "False"),
    ("Cc1cc(Nc2nc(-c3cn(-c4ccc(Cl)cc4)nn3)nc3ccccc23)n[nH]1", "SF-539 CNS", "False"),
    ("Cc1cn(-c2cc(C(=O)Nc3cccc(-n4ccc5c(NC(=O)c6ccccc6)nccc54)c3)cc(C(F)(F)F)c2)cn1", "SF-539 CNS", "True"),
    ("CCCCCCCCCCNC(=O)CI", "SF-539 CNS", "False"),
]

Task: Identify the outcome logged in this assay for the compound shown: `COc1ccc(-c2nc(-c3cc(OC)cc(OC)c3)[nH]c2-c2ccc(OC)cc2)cc1`
Result: False

Task: Please state the recorded outcome for this compound: `COc1cc2cc(Oc3ccc(NC(=O)c4cc(C(F)(F)F)cc(C(F)(F)F)c4)cc3)c(C)nc2cc1OC`
Result: False

Task: In this assay, the call recorded for `O=C(NCc1ccc(Cn2c(=O)sn(-c3ccccc3)c2=O)cc1)OCc1ccc2cccc(O)c2n1` was what?
Result: False

Task: What call does the record list for `N[C@H](CCC(=O)N[C@@H](Cc1c[nH]c2ccccc12)C(=O)O)C(=O)O` ?
Result: False

Task: Kindly provide the recorded test outcome for the following compound: `O=C(c1ccco1)c1c(C(F)(F)F)n([O-])c2ccc(C(F)(F)F)cc2[n+]1=O`
Result: False

Task: Hi, do you know how `COc1ccc(-c2cnnn2-c2nonc2-n2cccc2)cc1` came out in this test?
Result: True

Data credit: PubChem BioAssay (NCI)
